# EXPERIMENTAL_TARGET: Cytochrome P450 2C19 (Homo sapiens)
# ASSAY_PROTOCOL: Cytochrome panel assay with activity outcomes
# ASSAY_CONTEXT: recombinant CYP, pro-luciferin dealkylation, luminescence, p450-cyp2c19; series mostly up to 57.1 µM
The campaign covered roughly 16,000 compounds. About 5,800 (36%) were called active. About 23% were inconclusive and are not listed. Calls come from the whole dose curve; as a rule, active = well fitted curve in the direction sought with a large enough effect; inconclusive = small, poorly fitted or top-dose-only effect, or effect the other way; inactive = no such curve, though single readings can be large or run the other way. Some of the results follow.
Labels: t = active, f = inactive

compound=CS(=O)(=O)N1CCC2(CCN(C(c3ccccc3)c3ccccc3)CC2)CC1 experimental_target="Cytochrome P450 2C19 (Homo sapiens)" assigned_class=f
compound=CCOc1cc(NC(=O)C2CCCCC2)c(OCC)cc1NC(=O)c1ccco1 experimental_target="Cytochrome P450 2C19 (Homo sapiens)" assigned_class=t
compound=COC(=O)c1ccccc1NS(=O)(=O)c1ccc2c3c(cccc13)C(=O)N2 experimental_target="Cytochrome P450 2C19 (Homo sapiens)" assigned_class=t
compound=CC(=O)N=c1sc(S(N)(=O)=O)nn1C experimental_target="Cytochrome P450 2C19 (Homo sapiens)" assigned_class=f
compound=CC(=O)O[C@@H](C)C[N+](C)(C)C experimental_target="Cytochrome P450 2C19 (Homo sapiens)" assigned_class=f
compound=O=C(/C=C/c1ccc(Cl)cc1)NCCSc1ccccc1 experimental_target="Cytochrome P450 2C19 (Homo sapiens)" assigned_class=t
compound=COc1cc(NC(=O)c2cc3ccccc3o2)c(OC)cc1Br experimental_target="Cytochrome P450 2C19 (Homo sapiens)" assigned_class=f
compound=Cc1cccc(CNc2ccnc(-c3cccnc3)n2)c1 experimental_target="Cytochrome P450 2C19 (Homo sapiens)" assigned_class=t
compound=CCOc1cc(NC(=O)c2cccs2)c(OCC)cc1NC(=O)c1ccco1 experimental_target="Cytochrome P450 2C19 (Homo sapiens)" assigned_class=f
compound=COc1ccccc1C(=O)Nc1cc2c(ccc3ccccc32)oc1=O experimental_target="Cytochrome P450 2C19 (Homo sapiens)" assigned_class=f
compound=COc1ncc2nc(-c3ccc(Cl)cc3)c(=O)n(C)c2n1 experimental_target="Cytochrome P450 2C19 (Homo sapiens)" assigned_class=f
compound=Cc1cnc(CNc2cc(-c3ccccc3CN(C)C)ncn2)cn1 experimental_target="Cytochrome P450 2C19 (Homo sapiens)" assigned_class=f
compound=COc1ccccc1CNc1cc(-c2ccccc2C)ncn1 experimental_target="Cytochrome P450 2C19 (Homo sapiens)" assigned_class=t
compound=Cn1c(=O)c(-c2ccc(Cl)cc2)nc2cnc(Oc3ccccc3)nc21 experimental_target="Cytochrome P450 2C19 (Homo sapiens)" assigned_class=f
compound=Cc1ccccc1NS(=O)(=O)c1ccc2[nH]cc(C(=O)N(C)Cc3ccco3)c(=O)c2c1 experimental_target="Cytochrome P450 2C19 (Homo sapiens)" assigned_class=t
compound=c1ccc(CNc2ccnc(-c3cccnc3)n2)cc1 experimental_target="Cytochrome P450 2C19 (Homo sapiens)" assigned_class=t
compound=COc1cc2c(cc1NC(=O)c1cc(-c3cccnc3)nc3ccc(C)cc13)oc1ccccc12 experimental_target="Cytochrome P450 2C19 (Homo sapiens)" assigned_class=t
compound=CCOC(=O)C(CC)(CC)C(=O)/C=C/c1ccc(Br)cc1 experimental_target="Cytochrome P450 2C19 (Homo sapiens)" assigned_class=t
compound=Cc1nc(-c2c(C(F)(F)F)noc2-c2ccc(O)cc2O)cs1 experimental_target="Cytochrome P450 2C19 (Homo sapiens)" assigned_class=t
compound="CCC(NC(=O)c1ccccc1NC(=O)c1ccco1)C(=O)NC1CCCCC1 (stereo not drawn)" experimental_target="Cytochrome P450 2C19 (Homo sapiens)" assigned_class=t
compound="Cc1ccc(C2C(=O)N(C3CCCC3)CC(=O)N2CC2COc3ccccc3O2)cc1 (stereo not drawn)" experimental_target="Cytochrome P450 2C19 (Homo sapiens)" assigned_class=t
compound=Cc1cnc(CNc2ccnc(-c3cccnc3)n2)cn1 experimental_target="Cytochrome P450 2C19 (Homo sapiens)" assigned_class=f
compound=COc1ccccc1CNc1cc(-c2ccc(C(=O)N(C)C)cc2)ncn1 experimental_target="Cytochrome P450 2C19 (Homo sapiens)" assigned_class=f

Where do the numbers come from? From PubChem BioAssay AID1851.
